experiment: TOX21_p53_BLA_p3_viability: Viability Assessment in the Tox21 HCT-116 p53 Agonism Beta-lactamase Assay, Phase 3 (AID 2283593);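 note: cells exposed to compound for 16 h before reading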
Inconclusive results are not listed. Activity calls are given as the source filed them. Rule for the calls: active = hit-call score of the fitted dose curve at least 0.9, where 1 is the maximum; inconclusive = response in the unintended direction; inactive = score below 0.9.
Hello, when you answer, please use one of the following outcomes: yes (1) = active, no (0) = inactive

Worked examples, 3 compounds total:
INSERT INTO results (compound, assigned_label) VALUES
  ('COC(C)CCO (stereo not given)', 'no (0)'),
  ('c1ccc(CCCc2ccccn2)cc1', 'no (0)'),
  ('COc1ccc(O)cc1', 'no (0)');

Ask | For N#Cc1ccccc1 , what call appears in the results of this test?
Reply | no (0)

Ask | For O=C[C@@H](O)[C@H](O)[C@H](O)CO , what call appears in the results of this test?
Reply | no (0)

Ask | For CSc1nc(NC2CC2)nc(NC(C)(C)C)n1 , what call appears in the results of this test?
Reply | no (0)

Ask | For CCCCCCCCCC=O , what call appears in the results of this test?
Reply | no (0)

Ask | For CCCCNC(=O)NS(=O)(=O)c1ccc(C)cc1 , what call appears in the results of this test?
Reply | no (0)

Ask | For c1ccc2[nH]ccc2c1 , what call appears in the results of this test?
Reply | no (0)

Ask | For OCCN1CCNCC1 , what call appears in the results of this test?
Reply | yes (1)

Cited source: PubChem BioAssay (EPA / NIEHS)
